Listed compounds paired with reported inhibition
TEST_TARGET: Focal adhesion kinase 1 (Homo sapiens) (UniProt Q05397)
Sequence (Q05397 whole entry, looked up): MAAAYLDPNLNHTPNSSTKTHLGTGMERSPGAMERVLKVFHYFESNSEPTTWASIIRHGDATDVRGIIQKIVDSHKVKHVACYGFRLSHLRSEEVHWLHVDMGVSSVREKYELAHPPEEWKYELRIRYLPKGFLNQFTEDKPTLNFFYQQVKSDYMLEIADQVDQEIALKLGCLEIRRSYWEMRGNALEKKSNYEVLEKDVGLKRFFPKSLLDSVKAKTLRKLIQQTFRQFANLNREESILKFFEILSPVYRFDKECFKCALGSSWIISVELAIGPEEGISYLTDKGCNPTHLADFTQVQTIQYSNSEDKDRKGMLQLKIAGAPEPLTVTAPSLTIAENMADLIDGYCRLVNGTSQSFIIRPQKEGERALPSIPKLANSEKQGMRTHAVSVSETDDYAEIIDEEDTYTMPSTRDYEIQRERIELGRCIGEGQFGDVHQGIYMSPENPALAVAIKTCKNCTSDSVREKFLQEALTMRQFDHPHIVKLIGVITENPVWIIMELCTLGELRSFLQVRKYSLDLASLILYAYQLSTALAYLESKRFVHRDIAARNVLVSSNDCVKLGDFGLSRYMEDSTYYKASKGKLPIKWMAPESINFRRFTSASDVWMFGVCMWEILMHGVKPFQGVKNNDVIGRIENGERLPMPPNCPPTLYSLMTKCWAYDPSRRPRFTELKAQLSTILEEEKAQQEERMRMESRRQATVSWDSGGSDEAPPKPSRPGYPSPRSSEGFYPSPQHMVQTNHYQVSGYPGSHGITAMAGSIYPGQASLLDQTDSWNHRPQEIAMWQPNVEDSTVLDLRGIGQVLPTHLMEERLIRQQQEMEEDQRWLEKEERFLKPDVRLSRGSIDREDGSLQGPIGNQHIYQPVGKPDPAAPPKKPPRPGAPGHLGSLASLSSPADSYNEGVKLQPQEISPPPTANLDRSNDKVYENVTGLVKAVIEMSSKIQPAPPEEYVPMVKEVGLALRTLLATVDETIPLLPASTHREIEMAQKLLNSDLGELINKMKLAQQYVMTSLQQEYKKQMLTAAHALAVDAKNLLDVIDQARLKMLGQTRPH
TEST_SUMMARY: FAK kinase inhibitors, primary screen, biochemical (AID 727);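 note: 0% = DMSO and 100% = reference compound high control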
ASSAY_SETUP: biochemical FAK kinase activity assay; stronger effect = higher value;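 tested at 7 µM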
Screen size: about 97,000 compounds; about 810 (0.84%) were called active. Only a selection was taken, and actives are over-represented in it overall.
Expressed in %, but write only the number.

Use these answered entries as a reference point.
Recorded result, `CCOC(=O)c1cc(C#N)c(N2CCCCC2)nc1-c1ccccc1` , inhibition: 4.29

Recorded result, `C=CCn1c(SCc2c(C(=O)OC)sc(N)c2C(=O)OC)nnc1-c1ccc(Cl)cc1` , inhibition: 1.31

Recorded result, `COc1ccc(OCCCC(=O)Oc2ccc(OC)cc2)cc1` , inhibition: 0.13

Next:
Recorded result, `CN(CC(=O)Nc1cccc2c1CCCC2)S(=O)(=O)c1ccc(Cl)cc1` , inhibition: 2.06

Recorded result, `CCn1c(SCc2ccc(C)cc2)nnc1-c1nn(-c2ccccc2)ccc1=O` , inhibition: 3.11

Recorded result, CS(=O)(=O)Nc1cccc(C2=NN(S(=O)(=O)c3ccccc3)C(c3cccs3)C2)c1 (configuration not stated) , inhibition: 1.03

Recorded result, `Cc1cccc(NC(=S)N2CCC(c3nc4ccccc4s3)CC2)c1` , inhibition: 0.28
